- Test system: Escherichia coli TOP10
- Protocol summary: shrunken log2 fold change of peptide-encoding DNA abundance (4.5 h post-induction vs induction); higher = less antimicrobial activity (less host growth inhibition)
- Measurement conditions: time post-induction: 4.5 h; library: site-saturation at positions 5, 18, 19, 20
The following sequences are listed with their measured shrunken log2 fold change values.
Answer using only a numeral; do not append any unit.

Sample answers from the record:
{"Macromolecule sequence": "RRIRTRPPRLPRPRPRPMSVPRP", "Measurement target": "Escherichia coli TOP10", "Reported measurement": -0.00965}
{"Macromolecule sequence": "RRIRMRPPRLPRPRPRPVGCPRP", "Measurement target": "Escherichia coli TOP10", "Reported measurement": 0.972}
{"Macromolecule sequence": "RRIRTRPPRLPRPRPRPTFQPRP", "Measurement target": "Escherichia coli TOP10", "Reported measurement": 0.0412}

Note: attention shifts to another entry.
In: For the sequence "RRIRSRPPRLPRPRPRPLIIPRP" , what shrunken log2 fold change is on record?
Out: -0.678

====

- System: Escherichia coli TOP10
- Protocol summary: shrunken log2 fold change of peptide-encoding DNA abundance (4.5 h post-induction vs induction); higher = less antimicrobial activity (less host growth inhibition)
- Measurement conditions: time post-induction: 4.5 h; library: site-saturation at positions 5, 18, 19, 20
Think of -0.08 as a floor: if shrunken log2 fold change stands on it or above, it is criterion met; beneath it, criterion not met.

{"Macromolecule sequence": "RRIRQRPPRLPRPRPRPVGNPRP", "Classification": "criterion not met"}

In: Quick check, shrunken log2 fold change >= -0.08? "RRIRQRPPRLPRPRPRPNNAPRP"
Out: criterion not met

====

- Test system: Escherichia coli TOP10;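 further: peptides expressed intracellularly from a pBAD plasmid library in pooled LB shake-flask culture, induced with 0.3% L-arabinose, DNA abundance read by NGS, three biological replicates, DESeq2 with apeglm shrinkage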
- Protocol summary: shrunken log2 fold change of peptide-encoding DNA abundance (4.5 h post-induction vs induction); higher = less antimicrobial activity (less host growth inhibition)
- Measurement conditions: time post-induction: 4.5 h; library: site-saturation at positions 5, 18, 19, 20
Categories are defined by ranges of shrunken log2 fold change, namely low value: < -0.1; medium value: ≥ -0.1 and < 0.1; high value: ≥ 0.1

# example entries with known answers
{"Macromolecule sequence": "RRIRARPPRLPRPRPRPGIIPRP", "Measurement target": "Escherichia coli TOP10", "Classification": "high value"}
{"Macromolecule sequence": "RRIRWRPPRLPRPRPRPEGIPRP", "Measurement target": "Escherichia coli TOP10", "Classification": "medium value"}
{"Macromolecule sequence": "RRIRARPPRLPRPRPRPSNEPRP", "Measurement target": "Escherichia coli TOP10", "Classification": "high value"}
{"Macromolecule sequence": "RRIRIRPPRLPRPRPRPRQQPRP", "Measurement target": "Escherichia coli TOP10", "Classification": "medium value"}
{"Macromolecule sequence": "RRIRIRPPRLPRPRPRPYVQPRP", "Measurement target": "Escherichia coli TOP10", "Classification": "low value"}
{"Macromolecule sequence": "RRIRPRPPRLPRPRPRPRWFPRP", "Measurement target": "Escherichia coli TOP10", "Classification": "high value"}
{"Macromolecule sequence": "RRIRVRPPRLPRPRPRPGDMPRP", "Measurement target": "Escherichia coli TOP10", "Classification": "low value"}
{"Macromolecule sequence": "RRIRLRPPRLPRPRPRPYYDPRP", "Measurement target": "Escherichia coli TOP10", "Classification": "low value"}
{"Macromolecule sequence": "RRIRSRPPRLPRPRPRPFSDPRP", "Measurement target": "Escherichia coli TOP10", "Classification": "low value"}
{"Macromolecule sequence": "RRIRQRPPRLPRPRPRPRKYPRP", "Measurement target": "Escherichia coli TOP10", "Classification": "low value"}

In: GET /class?item= "RRIRNRPPRLPRPRPRPCDDPRP"
Out: medium value

In: What would you report for "RRIRRRPPRLPRPRPRPRPDPRP" ?
Out: high value

In: What would you report for "RRIRARPPRLPRPRPRPLMGPRP" ?
Out: high value

In: What would you report for "RRIRERPPRLPRPRPRPKWFPRP" ?
Out: medium value

In: What would you report for "RRIRNRPPRLPRPRPRPILMPRP" ?
Out: medium value
